Each recorded value in this set is attributed to patent US8097752B2.

Tested on: promastigote forms of Leishmania donovani
assay: In vitro antileishmanial activity in promastigote cultures (MTT), L. donovani
Assay type: cell-based, Leishmania donovani MHOM/IN/80/DD8/LEM 703
particulars: promastigotes, 72 h incubation, mean ± SEM, n = 3-4 (each run in duplicate), read-out: IC50 (μM) L. donovani MON 703
Parameter: IC50. Scope: all listed entries.
Hi! Could you send only the number? It should be in µM, unit omitted.

INSERT INTO measurements (compound, readout_type, observed) VALUES
  ('CCCCCCCCCCCC=C1CCC(OCCOP(=O)([O-])OCC[N+]2(C)CCOCC2)CC1 (stereo not shown) [Example 3]', 'IC50', 50.7);

Q. Report measured IC50; entry is C[N+]1(CCOP(=O)([O-])OCCCCCCCCCCC=C2CCCCC2)CCOCC1 [Example 15]
A. 8.25

Q. Report measured IC50; entry is CCCCCCCCCCCC=C1CCC(OCCOP(=O)([O-])OCC[N+](C)(C)C)CC1 (stereo not shown) [Example 1]
A. 7.08

Q. Report measured IC50; entry is C[N+]1(CCOP(=O)([O-])OCCCCC=C2C3CC4CC(C3)CC2C4)CCOCC1 [Example 18]
A. 46.9

---

System: promastigote forms of Leishmania donovani
assay: In vitro antileishmanial activity in promastigote cultures (MTT), L. donovani
Type: cell-based, Leishmania donovani MHOM/IN/80/DD8/LEM 703
particulars: Leishmania donovani, promastigotes, 72 h incubation, mean ± SEM, n = 3-4 (each run in duplicate), read-out: IC50 (μM) L. donovani MON 703
readout.type: IC50 (µM)
Hi! Could you send only the number? It should be in µM, unit omitted.

Q. Report measured IC50; entry is `CCCCCCCCCCCCCCCCOP(=O)([O-])OCC[N+](C)(C)C`
A. 23.7

---

Test system: promastigote forms of Leishmania infantum
assay: In vitro antileishmanial activity in promastigote cultures (MTT), L. infantum
Type: cell-based, Leishmania infantum MHOM/TN/80/IPT1/LEM 235
particulars: Leishmania infantum, promastigotes, 72 h incubation, mean ± SEM, n = 3-4 (each run in duplicate), read-out: IC50 (μM) L. infantum MON 235
readout.type: IC50

Q. Report measured IC50; entry is `CCCCCCCCCCCCCCCCOP(=O)([O-])OCC[N+](C)(C)C`
A. 22.6 µM

---

Parameter: IC50. Scope: all listed entries.
Tested on: promastigote forms of Leishmania donovani
assay: In vitro antileishmanial activity in promastigote cultures (MTT), L. donovani
Assay type: cell-based, Leishmania donovani MHOM/IN/80/DD8/LEM 703
particulars: promastigotes, 72 h incubation, mean ± SEM, n = 3-4 (each run in duplicate), read-out: IC50 (μM) L. donovani MON 703

INSERT INTO assay_data (compound, readout_type, observed) VALUES
  ('C[N+](C)(C)CCOP(=O)([O-])OCCCCCCCCCCC=C1C2CC3CC(C2)CC1C3', 'IC50', '3.16 µM'),
  ('C[N+](C)(C)CCOP(=O)([O-])OCCCCCCCCCCCC1CCCCC1', 'IC50', '10.3 µM'),
  ('C[N+]1(CCOP(=O)([O-])OCCCCCCCCCCC=C2C3CC4CC(C3)CC2C4)CCOCC1', 'IC50', '5.09 µM');

Q. Report measured IC50; entry is CCCCCCCCCCCCC1CCC(OCCOP(=O)([O-])OCC[N+](C)(C)C)CC1 (stereo not drawn)
A. 9.49 µM

Q. Report measured IC50; entry is `C[N+]1(CCOP(=O)([O-])OCCCCCCCCCCC=C2CCCCC2)CCCCC1`
A. 8.7 µM

Q. Report measured IC50; entry is `C[N+]1(CCOP(=O)([O-])OCCCCC=C2CCCCC2)CCCCC1`
A. > 100 µM

---

Test system: promastigote forms of Leishmania donovani
assay: In vitro antileishmanial activity in promastigote cultures (MTT), L. donovani
Format: cell-based, Leishmania donovani MHOM/IN/80/DD8/LEM 703
particulars: promastigotes, 72 h incubation, mean ± SEM, n = 3-4 (each run in duplicate), read-out: IC50 (μM) L. donovani MON 703
Parameter: IC50. Scope: all listed entries.
Hi! Could you send only the number? It should be in µM, unit omitted.

# example entries with known answers
INSERT INTO measurements (compound, unit_of_measure, observed) VALUES
  ('CCCCCCCCCCCCCC=C1CCC(OCCOP(=O)([O-])OCC[N+](C)(C)C)CC1 (centres unmarked) [Example 4]', 'µM', 3.91),
  ('CCCCCCCCCCCCCCC1CCC(OCCOP(=O)([O-])OCC[N+](C)(C)C)CC1 (centres unmarked) [Example 27]', 'µM', 23.7);

Q. Report measured IC50; entry is CCCCCCCCCCCC=C1CCC(OCCOP(=O)([O-])OCC[N+]2(C)CCCCC2)CC1 (centres unmarked) [Example 2]
A. 22

Q. Report measured IC50; entry is CCCCCCCCCCCCCCCC=C1CCC(OCCOP(=O)([O-])OCC[N+](C)(C)C)CC1 (centres unmarked) [Example 7]
A. 45.1

Q. Report measured IC50; entry is C[N+](C)(C)CCOP(=O)([O-])OCCCCC=C1C2CC3CC(C2)CC1C3 [Example 16]
A. 4.99

Q. Report measured IC50; entry is C[N+](C)(C)CCOP(=O)([O-])OCCCCCC12CC3CC(CC(C3)C1)C2 [Example 29]
A. 4.02

---

Tested on: promastigote forms of Leishmania donovani
assay: In vitro antileishmanial activity in promastigote cultures (MTT), L. donovani
Type: cell-based, Leishmania donovani MHOM/IN/80/DD8/LEM 703
particulars: promastigotes, 72 h incubation, mean ± SEM, n = 3-4 (each run in duplicate), read-out: IC50 (μM) L. donovani MON 703
readout.type: IC50 (µM)
Hi! Could you send only the number? It should be in µM, unit omitted.

INSERT INTO assay_data (molecule, observed) VALUES
  ('C[N+](C)(C)CCOP(=O)([O-])OCCCCCCCCCCCC12CC3CC(CC(C3)C1)C2', 2.88);

Q. Report measured IC50; entry is `C[N+](C)(C)CCOP(=O)([O-])OCCCCCCCCCCC=C1CCCCC1`
A. 2.4

Q. Report measured IC50; entry is CCCCCCCCCCCCCCCC=C1CCC(OCCOP(=O)([O-])OCC[N+]2(C)CCOCC2)CC1 (centres unmarked)
A. 16.2

Q. Report measured IC50; entry is `C[N+]1(CCOP(=O)([O-])OCCCCCCCCCCC=C2C3CC4CC(C3)CC2C4)CCCCC1`
A. 5.41

Q. Report measured IC50; entry is CCCCCCCCCCCCCC=C1CCC(OCCOP(=O)([O-])OCC[N+]2(C)CCOCC2)CC1 (centres unmarked)
A. 38.6

Q. Report measured IC50; entry is CCCCCCCCCCCCCC=C1CCC(OCCOP(=O)([O-])OCC[N+]2(C)CCCCC2)CC1 (centres unmarked)
A. 29.7

Q. Report measured IC50; entry is CCCCCCCCCCCCCCCC=C1CCC(OCCOP(=O)([O-])OCC[N+]2(C)CCCCC2)CC1 (centres unmarked)
A. 22
